Tested on: Epidermal growth factor receptor (Homo sapiens), P00533 [L858R,T790M]
Sequence (P00533 whole entry T790M/L858R, looked up): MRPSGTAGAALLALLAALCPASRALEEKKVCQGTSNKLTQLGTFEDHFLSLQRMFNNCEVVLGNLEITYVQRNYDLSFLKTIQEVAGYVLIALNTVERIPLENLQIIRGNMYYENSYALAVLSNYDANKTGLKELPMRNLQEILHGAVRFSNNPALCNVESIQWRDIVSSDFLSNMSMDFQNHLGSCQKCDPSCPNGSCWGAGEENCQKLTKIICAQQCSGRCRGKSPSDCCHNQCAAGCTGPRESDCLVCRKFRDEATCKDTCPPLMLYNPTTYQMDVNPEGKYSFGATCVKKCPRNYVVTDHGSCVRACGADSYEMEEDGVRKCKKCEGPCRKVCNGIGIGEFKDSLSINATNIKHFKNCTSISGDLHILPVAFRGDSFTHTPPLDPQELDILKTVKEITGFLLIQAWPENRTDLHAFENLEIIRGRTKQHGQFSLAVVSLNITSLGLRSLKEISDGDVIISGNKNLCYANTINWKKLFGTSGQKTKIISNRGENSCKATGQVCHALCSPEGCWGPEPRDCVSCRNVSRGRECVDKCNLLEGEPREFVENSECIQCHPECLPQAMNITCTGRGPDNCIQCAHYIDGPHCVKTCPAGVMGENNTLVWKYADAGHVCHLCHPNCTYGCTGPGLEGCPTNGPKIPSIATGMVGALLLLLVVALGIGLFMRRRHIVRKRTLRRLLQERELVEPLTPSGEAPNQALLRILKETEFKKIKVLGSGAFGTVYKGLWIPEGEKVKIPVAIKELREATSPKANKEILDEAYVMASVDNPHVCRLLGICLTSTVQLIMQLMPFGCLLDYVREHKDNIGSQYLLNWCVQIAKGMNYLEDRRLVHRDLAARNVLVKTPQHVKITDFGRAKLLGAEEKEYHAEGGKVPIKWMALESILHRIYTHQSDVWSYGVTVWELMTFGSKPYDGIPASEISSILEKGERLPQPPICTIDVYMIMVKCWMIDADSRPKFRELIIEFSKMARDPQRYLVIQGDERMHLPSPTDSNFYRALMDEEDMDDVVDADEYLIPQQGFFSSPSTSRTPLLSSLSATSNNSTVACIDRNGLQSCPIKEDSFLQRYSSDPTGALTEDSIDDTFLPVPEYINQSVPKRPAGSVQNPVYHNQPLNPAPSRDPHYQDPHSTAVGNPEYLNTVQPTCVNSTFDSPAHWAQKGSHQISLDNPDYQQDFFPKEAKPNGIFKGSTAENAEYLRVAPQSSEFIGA
Settings: at 0.1 µM
Measured Quantity: inhibition (%)

Molecule | Measured Quantity | Display Unit | Value
COc1cc(/C=N/Nc2ncnc3[nH]ncc23)ccc1O | inhibition | % | -0.56
CS(=O)(=O)CCNCc1coc(-c2ccc3ncnc(Nc4ccc(OCc5ccccc5)cc4)c3c2)c1 | inhibition | % | -2.4
CNC(=O)c1cc(-c2ccc(F)cc2)cc(-c2ccc(S(=O)(=O)N3CCCC3)cc2)c1N | inhibition | % | -0.37
CCn1cc(-c2ccnc3[nH]ccc23)c(-c2cccc(NC(=O)Nc3ccc(OCc4ccccc4)cc3)c2)n1 | inhibition | % | 0.93
COC(=O)Nc1nc2ccc(S(=O)(=O)c3ccc(NC(=O)Nc4cc(C(F)(F)F)ccc4F)cc3)cc2[nH]1 | inhibition | % | 0.89
COc1cccc(-c2c[nH]c3c(N/N=C/c4ccncc4)ncnc23)c1 | inhibition | % | 2.51
c1cc(-c2cnn3nc(N4CCOCC4)ccc23)nc(NC2CC2)n1 | inhibition | % | 1.11
FC(F)(F)c1cccc(-c2nn3ncccc3c2-c2ccnc(Nc3ccc4c(c3)OCCO4)n2)c1 | inhibition | % | 2.69
Fc1ccc(-c2cc(-c3c[nH]nc3-c3ccccn3)ccn2)cc1 | inhibition | % | -1.9
CN1CCC(n2cnc(-c3ccc(F)cc3)c2-c2ccnc(Nc3ccccc3)n2)CC1 | inhibition | % | 9.65
CN1CCC(n2cnc(-c3ccc(F)cc3)c2-c2ccnc(N)n2)CC1 | inhibition | % | -4.77
CCn1c(-c2nonc2N)nc2cnc(Oc3cccc(NC(=O)c4ccc(N(C)C)cc4)c3)cc21 | inhibition | % | -1.54
Cc1cccc(Nc2ncc(-c3ccccc3)o2)c1 | inhibition | % | -0.51
COC(=O)c1sc(-n2cnc3cc(OC)c(OC)cc32)cc1OCc1ccccc1C(F)(F)F | inhibition | % | -1.64
CCNC(=O)O[C@H]1CN[C@H](C#Cc2cc3ncnc(Nc4ccc(OCc5cccc(F)c5)c(Cl)c4)c3s2)C1 | inhibition | % | 2.62
Nc1nc(-c2ccc(F)cc2)c(-c2ccc3ncccc3n2)s1 | inhibition | % | 4.54
c1ccc(COc2ccc(Nc3ncnc4ccc(-c5ccco5)cc34)cc2)cc1 | inhibition | % | -0.19
COc1ccc(-c2cc(-c3c[nH]nc3-c3ccccn3)ccn2)cc1 | inhibition | % | 2.1
CC(C)COC(=O)c1ccc2c(c1)/C(=C/Nc1ccc(S(N)(=O)=O)cc1)C(=O)N2 | inhibition | % | -2.38
NS(=O)(=O)c1ccc(N/N=C2\C(=O)Nc3ccc4ncccc4c32)cc1 | inhibition | % | 1.77
COC(=O)Nc1nc2ccc(Oc3ccc(NC(=O)Nc4cccc(Cl)c4)cc3)cc2[nH]1 | inhibition | % | -2.96
COc1ccc(-c2nn3ncccc3c2-c2ccnc(Nc3ccc4c(c3)OCCO4)n2)cc1 | inhibition | % | 0.11
COc1ccc(CNC(=O)c2ccc(-c3cc(-c4nnc(C)o4)ccc3C)cc2)cc1 | inhibition | % | 3.26
c1ccc(-c2nc3n(c2-c2ccc4c(c2)OCO4)CCC3)nc1 | inhibition | % | 1.92
CC(C)(CO)CNC(=O)c1ccc2c(c1)/C(=N/Nc1ccc(S(N)(=O)=O)cc1)C(=O)N2 | inhibition | % | -1.33
N#Cc1c(NC(=O)CN2CCOCC2)sc2c1CCCC2 | inhibition | % | 2.42
O=C(Nc1n[nH]c2cc(-c3ccc(F)cc3)ccc12)C1CC1 | inhibition | % | 1.46
COc1cc2c(cc1Nc1nc(Nc3ccsc3C(N)=O)c3cc[nH]c3n1)N(C(=O)CN(C)C)CCC2(C)C | inhibition | % | 51.9
Fc1cccc(COc2ccc(Nc3ncnc4sc(-c5ccco5)cc34)cc2Cl)c1 | inhibition | % | 0.58
Fc1ccc(-c2nn3ncccc3c2-c2ccnc(Nc3ccc4c(c3)OCCO4)n2)cc1 | inhibition | % | 45.5
CCCN1CCC(c2ccc(Nc3nc(Nc4cc(F)ccc4C(N)=O)c4cc[nH]c4n3)c(OC)c2)CC1 | inhibition | % | 53.7
CCn1c(-c2nonc2N)nc2c(C#CC(C)(C)O)ncc(OC3CCNCC3)c21 | inhibition | % | 1.78
COc1ccc2[nH]c3c4[nH]c5ccc(OC)cc5c4c4c(c3c2c1)C(=O)NC4=O | inhibition | % | 9.7
NS(=O)(=O)c1ccc(Nc2ncc(-c3ccccc3)o2)cc1 | inhibition | % | 2.14
CS(=O)(=O)CCNCc1ccc(-c2ccc3ncnc(Nc4ccc(OCc5ccccc5)c(C(F)(F)F)c4)c3c2)o1 | inhibition | % | 3.43
COc1cc2ncn(-c3cc(OCc4ccccc4C(F)(F)F)c(C(=O)N(C)C)s3)c2cc1OC | inhibition | % | 0.72
CC(=O)NCc1cccc(C#Cc2cncnc2Nc2ccc(OCc3cccc(F)c3)c(Cl)c2)c1 | inhibition | % | 1.41
O=C(O[C@H]1CN[C@H](C#Cc2cc3ncnc(Nc4ccc(Cc5ccccc5)cc4)c3s2)C1)N1CCOCC1 | inhibition | % | -1.96
CCOc1ccc2c(-c3ccnc(Nc4cccc(C(F)(F)F)c4)n3)cnn2n1 | inhibition | % | 0.8
CCN1CCC(CC(=O)Nc2n[nH]c3nnc(-c4cccc(F)c4F)cc23)CC1 | inhibition | % | 1.92
CC1=C(C(=O)Nc2cc(Cl)c3[nH]ncc3c2)C(c2ccc(C(F)(F)F)cc2)CC(=O)N1 (stereo unspecified) | inhibition | % | 1.19

From: ChEMBL document CHEMBL1961873
